target: Gamma-secretase; assay: Inhibition of human gamma-secretase expressed in IMR32 cell membranes using MBPC-125 Swedish as substrate assessed as inhibition of amyloid beta40 production after 2 hrs by ELISA; settings: imr-32
OBSERVABLE: IC50 (nM)
Please state the figure in nM; there is no need to write the unit.

The observed IC50 for `COc1ccc(CN([C@H](CC(C)C)C(N)=O)S(=O)(=O)c2ccc(Cl)cc2)cc1` when tested with Gamma-secretase stands at 0.19

###

experiment: Inhibition of gamma-secretase-mediated amyloid beta42 production by GS H4-8 SW1-42 assay; details: read-out: IC50
Quick reference for IC50 among some compounds
Please state the figure in nM; there is no need to write the unit.

CC(C)C[C@H](C(N)=O)N(Cc1ccc(CCl)cc1)S(=O)(=O)c1ccc(Cl)cc1 :: 0.35
CC(C)(C)C(=O)C[C@H](C(N)=O)N(Cc1ccc(C#N)cc1)S(=O)(=O)c1ccc(Cl)cc1 :: 54
CC(C)C[C@H](C(N)=O)N(CC1CCCCC1)S(=O)(=O)c1ccc(Cl)cc1 :: 0.79
COc1ccc(CN([C@@H](C(N)=O)C(C)C)S(=O)(=O)c2ccc(Cl)cc2)cc1F :: 1.4

Please fill in: IC50 reported for `CC(C)C[C@H](C(N)=O)N(Cc1ccc(C#N)cc1)S(=O)(=O)c1ccc(F)cc1` = 2.7

Please fill in: IC50 reported for `COc1ccc(CN(CC(N)=O)S(=O)(=O)c2ccc(Cl)cc2)cc1F` = 2000

Please fill in: IC50 reported for `CC(C)C[C@H](C(N)=O)N(Cc1ccc(F)cc1)S(=O)(=O)c1ccc(Cl)cc1` = 0.43

Please fill in: IC50 reported for `COc1ccc(CN([C@H](Cc2ccccc2)C(N)=O)S(=O)(=O)c2ccc(Cl)cc2)cc1` = 390

Please fill in: IC50 reported for `COc1ccc(CN([C@H](CC(C)C)C(N)=O)S(=O)(=O)c2ccc(Cl)cc2)cc1F` = 0.15

Please fill in: IC50 reported for `COc1ccc(CN(C(=O)Nc2ccccc2)[C@H](CC(C)C)C(N)=O)cc1F` = 1100

Please fill in: IC50 reported for `CC(C)C[C@H](C(N)=O)N(CCSC(C)(C)C)S(=O)(=O)c1ccc(Cl)cc1` = 4.2

Please fill in: IC50 reported for `CC(C)C[C@H](C(N)=O)N(Cc1ccc(C#N)cc1)S(=O)(=O)c1ccc(Cl)cc1` = 0.67

Please fill in: IC50 reported for `CCC[C@H](C(N)=O)N(Cc1ccc(C#N)cc1)S(=O)(=O)c1ccc(Cl)cc1` = 2.6

Please fill in: IC50 reported for `CSCC[C@H](C(N)=O)N(Cc1ccc(C#N)cc1)S(=O)(=O)c1ccc(Cl)cc1` = 19

Please fill in: IC50 reported for `CC(C)C[C@H](C(N)=O)N(Cc1ccccc1)S(=O)(=O)c1ccc(Cl)cc1` = 0.35

Please fill in: IC50 reported for `CS(=O)(=O)CC[C@H](C(N)=O)N(Cc1ccc(C#N)cc1)S(=O)(=O)c1ccc(Cl)cc1` = 4300

Please fill in: IC50 reported for `COc1ccc(CN([C@H](C)C(N)=O)S(=O)(=O)c2ccc(Cl)cc2)cc1F` = 5.3

Please fill in: IC50 reported for `CC(C)C[C@H](C(N)=O)N(CCCCCCN1CCOCC1)S(=O)(=O)c1ccc(Cl)cc1` = 3.5

Please fill in: IC50 reported for `COc1ccc(CN([C@H](CC(C)C)C(=O)O)S(=O)(=O)c2ccc(Cl)cc2)cc1F` = 220
